Exercise: state measured KD ratio pH 5.5/7.4 for each of the binders provided.
Molecular target: T1, human PCSK9 (human, UniProt Q8NBP7 31-692, limits assumed)
T1 construct: also called hPCSK9; huPCSK9
T1 sequence (Q8NBP7 31-692 limits assumed): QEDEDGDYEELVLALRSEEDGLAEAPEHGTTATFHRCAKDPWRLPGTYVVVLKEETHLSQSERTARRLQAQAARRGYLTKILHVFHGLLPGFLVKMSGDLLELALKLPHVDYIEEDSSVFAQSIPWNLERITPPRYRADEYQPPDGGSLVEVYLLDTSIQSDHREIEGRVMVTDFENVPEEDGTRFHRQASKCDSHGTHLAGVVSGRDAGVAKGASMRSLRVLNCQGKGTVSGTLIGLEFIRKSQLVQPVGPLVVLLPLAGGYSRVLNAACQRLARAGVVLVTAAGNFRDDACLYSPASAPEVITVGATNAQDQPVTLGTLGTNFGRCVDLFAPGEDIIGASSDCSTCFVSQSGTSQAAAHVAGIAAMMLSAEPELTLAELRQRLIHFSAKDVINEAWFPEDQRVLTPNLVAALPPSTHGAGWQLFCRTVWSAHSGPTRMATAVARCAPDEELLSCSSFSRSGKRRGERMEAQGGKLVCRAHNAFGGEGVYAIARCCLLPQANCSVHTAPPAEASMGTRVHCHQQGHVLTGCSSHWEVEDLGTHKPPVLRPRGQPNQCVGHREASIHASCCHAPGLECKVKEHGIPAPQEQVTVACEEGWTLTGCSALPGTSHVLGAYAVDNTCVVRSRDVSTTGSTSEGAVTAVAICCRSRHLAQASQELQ
Experiment: SPR Biacore 3000, KD at pH 5.5 over KD at pH 7.4
One number for each entry.

Here's what some known entries look like.
>  <binder>
5L1721H23_6L3 (antibody, V domains shown, Tested as full-length IgG; also called heavy UC-H5H23, light UC-H5L1721-6L3) VH: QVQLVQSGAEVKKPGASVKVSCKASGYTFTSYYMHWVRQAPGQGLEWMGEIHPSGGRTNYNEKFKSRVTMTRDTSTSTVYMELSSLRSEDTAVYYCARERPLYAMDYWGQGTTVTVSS VL: DIQMTQSPSSLSASVGDRVTITCKASQDVHTAVAWYQQKPGKAPKLLIYHASYRYTGVPSRFSGSGSGTDFTFTISSLQPEDIATYYCQQRYSLWRTFGQGTKLEIK

>  <endpoint>
KD ratio pH 5.5/7.4

>  <quantitativeReadout>
37.2

$$$$
>  <binder>
6L1721 (antibody, V domains shown, L1L3-based mutant; Tested as full-length IgG) VH: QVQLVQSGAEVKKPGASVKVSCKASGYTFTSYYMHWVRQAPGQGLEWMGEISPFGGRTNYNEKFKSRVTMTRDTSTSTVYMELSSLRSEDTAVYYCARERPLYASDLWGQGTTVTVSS VL: DIQMTQSPSSLSASVGDRVTITCRASQGIHSALAWYQQKPGKAPKLLIYHASYRYTGVPSRFSGSGSGTDFTFTISSLQPEDIATYYCQQRYSLWRTFGQGTKLEIK

>  <endpoint>
KD ratio pH 5.5/7.4

>  <quantitativeReadout>
2.3

$$$$
>  <binder>
5L1721H23_6H3 (antibody, V domains shown, Only CDRs printed; Full-length IgG) VH: QVQLVQSGAEVKKPGASVKVSCKASGYTFTSYYMHWVRQAPGQGLEWMGEIHPSGGRTNYNEKFKSRVTMTRDTSTSTVYMELSSLRSEDTAVYYCARERPLYASDLWGQGTTVTVSS VL: DIQMTQSPSSLSASVGDRVTITCKASQDVHTAVAWYQQKPGKAPKLLIYHASYRYTGVPSRFSGSGSGTDFTFTISSLQPEDIATYYCQQRYSTPRTFGQGTKLEIK

>  <endpoint>
KD ratio pH 5.5/7.4

>  <quantitativeReadout>
7.5

$$$$

We next turn to a different binder, shown below.
### Prompt What value of KD ratio pH 5.5/7.4 has been reported for the following binder? 6L1721H23 (antibody, V domains shown, L1L3-based mutant; Full-length IgG) VH: QVQLVQSGAEVKKPGASVKVSCKASGYTFTSYYMHWVRQAPGQGLEWMGEIHPFGGRTNYNEKFKSRVTMTRDTSTSTVYMELSSLRSEDTAVYYCARERPLYASDLWGQGTTVTVSS VL: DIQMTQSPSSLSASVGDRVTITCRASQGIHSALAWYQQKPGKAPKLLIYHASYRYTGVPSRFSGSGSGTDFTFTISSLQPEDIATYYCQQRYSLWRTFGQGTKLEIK
### Response 6
